test system: MCF7AREc32 cell line; conditions: read-out: interpolated IC50, cytotoxicity; MCF7AREc32, converted to mmol/L
readout: pIC50
# pIC50 is unitless: minus log10 of the molar concentration; print number only

Q: Sample [Cd] [Cd, cadmium] — what was its pIC50?
Result: 4.06

* * *

test system: AR-EcoScreen GR-KO-M1 cell line; details: AR-EcoScreen GR-KO-M1, MTS test, 24 h exposure
readout: IC70, cytotoxicity (µg/mL)
Numeric only. Scale: µg/mL

Use these answered entries as a reference point.
| molecule | target | IC70, cytotoxicity / µg/mL |
| --- | --- | --- |
| [Nd] [Nd, Neodymium] | AR-EcoScreen GR-KO-M1 cell line | 26 |
| [Cd] [Cd, cadmium] | AR-EcoScreen GR-KO-M1 cell line | 2.6 |
| [Te] [Te, tellurium] | AR-EcoScreen GR-KO-M1 cell line | 0.28 |

Q: Sample [Ga] [Ga, gallium] — what was its IC70, cytotoxicity?
Result: 50

* * *

system: DR-EcoScreen cell line; conditions: MTS test, 24 h exposure
readout: IC70, cytotoxicity (mg/L)
Numeric only. Scale: mg/L

| molecule | IC70, cytotoxicity [mg/L] |
| --- | --- |
| [As] [As, arsenic, reference compound] | 0.83 |
| [Nd] | 31 |
| [Ga] | 100 |

Turning to the following molecule.
Q: Sample [Te] — what was its IC70, cytotoxicity?
Result: 8.7

* * *

system: DR-EcoScreen cell line; conditions: read-out: interpolated IC50, cytotoxicity, converted to mmol/L
readout: IC50 (mmol/L)
Numeric only. Scale: mmol/L

Q: Sample [As] [As, arsenic, reference compound] — what was its IC50?
Result: 0.014

* * *

test system: VM7Luc4E2 cell line; conditions: read-out: IC80, cytotoxicity; VM7Luc4E2, ATPase test, converted from mg/L
readout: IC80 (µM)
Numeric only. Scale: µM

Use these answered entries as a reference point.
| structure | result |
| --- | --- |
| [Yb] | 190 |
| [Tl] | 44 |

Q: Sample [Gd] — what was its IC80?
Result: 24

* * *

tested on: AR-EcoScreen GR-KO-M1 cell line; settings: read-out: interpolated IC50, cytotoxicity; AR-EcoScreen, converted to mmol/L
Each entry below carries its recorded pIC50.
# pIC50 is unitless: minus log10 of the molar concentration; print number only

Q: Sample [As] [As, arsenic, reference compound] — what was its pIC50?
Result: 3.77

Q: Moving on to [Cd] [Cd, cadmium]
Result: 4.28
